Target: Thymidine phosphorylase (Escherichia coli O45:K1 (strain S88 / ExPEC), UniProt B7MNI9)
Sequence (B7MNI9 whole entry): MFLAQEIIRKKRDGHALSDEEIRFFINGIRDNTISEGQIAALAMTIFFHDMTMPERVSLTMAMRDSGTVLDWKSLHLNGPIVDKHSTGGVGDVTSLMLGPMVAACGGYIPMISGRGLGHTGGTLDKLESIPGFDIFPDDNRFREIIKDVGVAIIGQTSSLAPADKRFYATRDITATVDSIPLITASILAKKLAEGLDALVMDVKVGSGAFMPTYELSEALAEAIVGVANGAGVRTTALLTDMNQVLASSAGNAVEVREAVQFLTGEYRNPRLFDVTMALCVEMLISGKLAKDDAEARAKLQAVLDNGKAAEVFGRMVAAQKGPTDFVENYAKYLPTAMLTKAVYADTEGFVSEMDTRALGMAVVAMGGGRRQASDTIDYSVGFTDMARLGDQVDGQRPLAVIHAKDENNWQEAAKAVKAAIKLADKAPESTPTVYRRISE
Experiment: Thymidine Phosphorylase Assay
Details: pH 7.4; 25 °C
Protocol: The Thymidine phosphorylase/PD-ECGF (E. coli) activity was determined by measuring the absorbance at 290 nm spectrophotometrically. In brief, total reaction mixture of 200 uL contained 145 uL of potassium phosphate buffer (pH 7.4), 30 uL of enzyme (E. coli) at concentration 0.05 and 0.002 U, respectively, were incubated with 5 uL of test materials for 10 min at 25 °C in microplate reader. After incubation, preread at 290 nm was taken to deduce the absorbance of substrate particles. […]
pIC50 listing for selected compounds.
Give only the number. pIC50 is defined as minus log10 of concentration in molar units.

Examples with answers:
SMILES NOTATION: Fc1ccc(/C=N/Nc2cnc3ccccc3n2)cc1
pIC50: 4.24
--
SMILES NOTATION: Oc1ccccc1/C=N/Nc1cnc2ccccc2n1
pIC50: 4.43

Inquiry: Name the recorded pIC50 for `COc1ccc(O)c(/C=N/Nc2cnc3ccccc3n2)c1` .
Reply text: 4.44

Inquiry: Quick one: `Oc1ccc(/C=N/Nc2cnc3ccccc3n2)c(O)c1`
Reply text: 4.48

Inquiry: Okay, and `Oc1cc(O)c(/C=N/Nc2cnc3ccccc3n2)c(O)c1` ?
Reply text: 5.04

Inquiry: Do the same for `COc1ccc(/C=N/Nc2cnc3ccccc3n2)c(O)c1` please
Reply text: 4.46

Inquiry: Follow-up entry: `Oc1cccc(/C=N/Nc2cnc3ccccc3n2)c1`
Reply text: 4.20
